Source: the kinase profiling compilation of Christmann-Franck et al. (2016)

- tested-on: SYK (human)
- experiment-notes: radiometric filter-binding kinase assay
- condition-details: compound 0.1 µM
Kindly supply the reported residual activity values for the records listed here.
Answers are plain numbers, in %.

Please review the following examples before continuing.
compound: NC(=O)c1cc(-c2ccnc(NC3CCCCC3)c2)nc(N2CCNCC2)c1
tested-on: SYK (human)
unit-abbrev: %
residual activity: 90

compound: O=C(N[C@@H](COc1ccc2[nH]c(=O)[nH]c2c1)c1ccccc1)c1cccn(Cc2ccc(F)c(F)c2)c1=O
tested-on: SYK (human)
unit-abbrev: %
residual activity: 99

compound: COc1ccc(-n2ncc3cnc(Nc4cc(OC)c(OC)c(OCCCN5CCN(C)CC5)c4)nc32)cc1
tested-on: SYK (human)
unit-abbrev: %
residual activity: 58

compound: C/C(=C1/C(=O)Nc2ccc(NC(N)=O)cc21)c1ccc[nH]1
tested-on: SYK (human)
unit-abbrev: %
residual activity: 97

compound: NC(=O)c1cc2c(-c3cccc(-c4ccccc4)c3)cnc(N)c2s1
tested-on: SYK (human)
unit-abbrev: %
residual activity: 96

Would you be so kind as to report residual activity for each listed record?
1. Cc1ccc(-c2ccc3c(ccc4sc5c(c43)NC[C@@H](C)NC5=O)n2)cn1
2. CCCCCc1ccc(/C=C/[C@H](O)[C@@H](CO)NC)cc1
3. Cc1cccc(-c2nn(C(=S)Nc3ccccc3)cc2-c2ccnc3ccccc23)n1
4. CNC(=O)C1[C@H]2O[C@@](C)([C@@H]1N)n1c3ccccc3c3c4c(c5c6ccccc6n2c5c31)C(=O)NC4 (some centres undefined)

output:
1. 94
2. 134
3. 109
4. 6
